system_under_test: T1, human OT7T175 (metastin receptor) (human, UniProt Q969F8 1-398)
T1 construct: expressed on CHO cells; also called hOT7T175; hOT7T175-expressed CHO cells
assay_explanation: competition with Cy-5 metastin (40-54) on hOT7T175-CHO cells, FMAT
pIC50: −log10 of the molar value. Non-standard residues stand in square brackets, D forms with d. No end group written: not given here. *: point of attachment. 2‑(indol-3-yl)ethylcarbamoyl = O=C(NCCc1c[nH]c2ccccc12)*; Phe(3-F) = N[C@@H](Cc1cccc(F)c1)C(=O)O; Arg(Me) = CNC(=N)NCCC[C@H](N)C(=O)O; Fmoc = O=C(OCC1c2ccccc2-c2ccccc21)*; azaGly = NNC(=O)O
Label label 1 when pIC50 is at or above 7; otherwise label label 0.

Exam item: Could you verify whether the entry YNWNSFGLR[Phe(3,4F2)]-NH2 (also called Compound No. 198) [[Phe(3,4F2)10]MS10] shows pIC50 of no less than 7?
Marked response: label 0

Exam item: Could you verify whether the entry YNWNSFGLR[Phe(3-F)]-NH2 (also called Compound No. 197) [[Phe(3F)10]MS10] shows pIC50 of no less than 7?
Marked response: label 0

Exam item: Could you verify whether the entry {2‑(indol-3-yl)ethylcarbamoyl}-NSF[azaGly]L[Arg(Me)]F-NH2 (SMILES CNC(=N)NCCC[C@H](NC(=O)[C@H](CC(C)C)NC(=O)NNC(=O)[C@H](Cc1ccccc1)NC(=O)[C@H](CO)NC(=O)[C@H](CC(N)=O)NC(=O)NCCc1c[nH]c2ccccc12)C(=O)N[C@@H](Cc1ccccc1)C(N)=O, also called Compound No. 279) [des(1-3)-2-(Indol-3-yl)ethylcarbamoyl-[AzaGly7,Arg(Me)9]MS10] shows pIC50 of no less than 7?
Marked response: label 1

Exam item: Could you verify whether the entry [dY]TNSF[azaGly]L[Arg(Me)]F-NH2 (also called Compound No. 241) [des(1)-[D-Tyr2,Thr3,AzaGly7,Arg(Me)9]MS10] shows pIC50 of no less than 7?
Marked response: label 1

Exam item: Could you verify whether the entry [dY]NWTSFGL[Arg(Me)]F-NH2 (also called Compound No. 208) [[D-Tyr1,Thr4,Arg(Me)9]MS10] shows pIC50 of no less than 7?
Marked response: label 0

Exam item: Could you verify whether the entry [dY]NWNSFGV[Arg(Me)]F-NH2 (also called Compound No. 213) [[D-Tyr1,Val8,Arg(Me)9]MS10] shows pIC50 of no less than 7?
Marked response: label 0

Exam item: Could you verify whether the entry Fmoc-WNSFGLRF-NH2 (SMILES CC(C)C[C@H](NC(=O)CNC(=O)[C@H](Cc1ccccc1)NC(=O)[C@H](CO)NC(=O)[C@H](CC(N)=O)NC(=O)[C@H](Cc1c[nH]c2ccccc12)NC(=O)OCC1c2ccccc2-c2ccccc21)C(=O)N[C@@H](CCCNC(=N)N)C(=O)N[C@@H](Cc1ccccc1)C(N)=O, also called Compound No. 54) [des(1-2)-Fmoc-MS10] shows pIC50 of no less than 7?
Marked response: label 0

Exam item: Could you verify whether the entry YNWNYFGLRF-NH2 (also called Compound No. 23) [[Tyr5]MS10] shows pIC50 of no less than 7?
Marked response: label 0

Exam item: Could you verify whether the entry YNWNSFGLRX (Pya(4)10; C-terminal amide, also called Compound No. 17) [[Pya(4)10]MS10] shows pIC50 of no less than 7?
Marked response: label 1

The reported measurements were obtained from patent US20090298765A1.
